System: SF3B1-mutant K562 cells
Assay: Mini-screen: pooled synthetic intron mini-library in HSV-TK, GCV treatment, full-length intron sequencing from genomic DNA
Format: cell-based
Conditions: genotype K700E (SF3B1+/K700E) K562; GCV 100 ug/mL; day 6; vector hPGK-PuroR-P2A-HSV-TK
Provide the reported fold-change (estimated fold-change in intron abundance in gDNA) of each item.
Answers are plain numbers.

See these solved cases before continuing.
{"columns": ["MOLECULE", "OBSERVED"],
 "data": [
  ["intron_2790: 150 nt synthetic intron, mutation 148_AtoG (canonical 3′ss); SEQ ID NO 59/67 (nucleic acid) DNA 1: GTGAGTCGCCCCCTTCCTCTGCTCCGAGAGGGAAATGGGAATTAGGGTGGTGGCAGAGCCCAAAGAGGCCTTGTAGGCCATGGTAAGGCATTTCTATGTTTTATTTTACTTTGTCTTTATCCTAAAATGCCATTGGCAAGTTTATTGCGG DNA 2: GTGAGTCGCCCCCTTCCTCTGCTCCGAGAGGGAAATGGGAATTAGGGTGGTGGCAGAGCCCAAAGAGGCCTTGTAGGCCATGGTAAGGCATTTCTATGTTTTATTTTACTTTGTCTTTATCCTAAAATGCCATTGGCAAGTTTATTGCGG", 0.7611],
  ["intron_8499: 150 nt synthetic intron, 89/95/102/107 AtoG branchpoint ablation; SEQ ID NO 61/69 (nucleic acid) DNA 1: GTGAGTCGCCCCCTTCCTCTGCTCCGAGAGGGAAATGGGAATTAGGGTGGTGGCAGAGCCCAAAGAGGCCTTGTAGGCCATGGTAAGGCGTTTCTGTGTTTTGTTTTGCTTTGTCTTTATCCTAAAATGCCATTGGCAAGTTTATTGCAG DNA 2: GTGAGTCGCCCCCTTCCTCTGCTCCGAGAGGGAAATGGGAATTAGGGTGGTGGCAGAGCCCAAAGAGGCCTTGTAGGCCATGGTAAGGCGTTTCTGTGTTTTGTTTTGCTTTGTCTTTATCCTAAAATGCCATTGGCAAGTTTATTGCAG", 0.2767]
]}

Now let's try a different one.
query: Look up and report measured fold-change (estimated fold-change in intron abundance in gDNA) for this entry: intron_26: 150 nt MTERFD3 intron 1-derived synthetic intron, deletion 25to125; SEQ ID NO 58/66 (nucleic acid) DNA 1: GTGAGTCGCCCCCTTCCTCTGCTCCGAGAGGGAAATGGGAATTAGGGTGGTGGCAGAGCCCAAAGAGGCCTTGTAGGCCATGGTAAGGCATTTCTATGTTTTATTTTACTTTGTCTTTATCCTAAAATGCCATTGGCAAGTTTATTGCAG DNA 2: GTGAGTCGCCCCCTTCCTCTGCTCCGAGAGGGAAATGGGAATTAGGGTGGTGGCAGAGCCCAAAGAGGCCTTGTAGGCCATGGTAAGGCATTTCTATGTTTTATTTTACTTTGTCTTTATCCTAAAATGCCATTGGCAAGTTTATTGCAG
result: 0.282
